The origin of these recorded values is patent US20230107941A1.

# protocol.description: In vitro cytotoxicity assay (MTT cell viability) in HepG2 cells
# Type: cell-based, human
# condition.description: human
Each record here notes measured CC50 at 7 days.
endpoint.name: CC50 at 7 days

[[record]]
compound_smiles = "Cc1c(C(=O)Nc2cccc(Cl)n2)c(C)n(C)c1C(=O)C(=O)N[C@H](C)C(F)(F)F"
observed = "> 30 µM"

[[record]]
compound_smiles = "Cc1c(C(=O)Nc2ccc(F)c(C(=O)O)c2)c(C)n(C)c1C(=O)C(=O)NC(C)(C)C"
observed = "> 30 µM"

[[record]]
compound_smiles = "Cc1cc(NC(=O)c2c(C)c(C(=O)C(=O)NCC(C)(C)O)n(C)c2C2CCCCC2)ccc1F"
observed = "> 30 µM"

[[record]]
compound_smiles = "Cc1cc(NC(=O)c2c(C)c(C(=O)C(=O)NCC(C)(C)O)n(C)c2C(C)C)ccc1F"
observed = "> 30 µM"


###

# protocol.description: In vitro cytotoxicity assay (MTT cell viability) in HepG2 cells
# Format: cell-based, human
# condition.description: human
endpoint.name: CC50 at 7 days

[[record]]
molecule = "Cc1cc(NC(=O)c2c(C)c(C(=O)C(=O)N[C@H]3CC[C@@H](S(C)(=O)=O)CC3)n(C)c2-c2ccncc2)ccc1F"
endpoint_name = "CC50 at 7 days"
observed = "> 30 µM"

[[record]]
molecule = "Cc1cc(NC(=O)c2c(C)c(C(=O)C(=O)N[C@H]3CCN(CC(=O)O)C3)n(C)c2C)ccc1F"
endpoint_name = "CC50 at 7 days"
observed = "> 30 µM"

[[record]]
molecule = "Cc1cc(NC(=O)c2c(C(C)C)c(C(=O)C(=O)N[C@H]3CC[C@@H](S(C)(=O)=O)CC3)n(C)c2C)ccc1F"
endpoint_name = "CC50 at 7 days"
observed = "> 30 µM"

[[record]]
molecule = "Cc1c(C(=O)Nc2ccc(F)c(C#N)c2)c(C)n(C)c1C(=O)C(=O)NC1(C)CC(O)C1 (stereo not shown)"
endpoint_name = "CC50 at 7 days"
observed = "> 30 µM"

[[record]]
molecule = "Cc1c(C(=O)Nc2cc(F)c(F)c(F)c2)c(C)n(C)c1C(=O)C(=O)N[C@]1(C)CC[C@@H](O)CC1"
endpoint_name = "CC50 at 7 days"
observed = "> 30 µM"

[[record]]
molecule = "Cc1c(C(=O)Nc2ccc(F)c(C#N)c2)c(C)n(C)c1C(=O)C(=O)N[C@]1(C)CC[C@@H](O)CC1"
endpoint_name = "CC50 at 7 days"
observed = "> 30 µM"

[[record]]
molecule = "Cc1cc(NC(=O)c2c(C)c(C(=O)C(=O)N[C@]3(C)CC[C@H](O)CC3)n(C)c2C2CCCC2)ccc1F"
endpoint_name = "CC50 at 7 days"
observed = "> 30 µM"


###

# System: HBV
# protocol.description: In vitro antiviral assay: anti-HBV replication in HepAD38 cells (extracellular HBV DNA by QPCR)
# Format: cell-based, hepatitis B virus (genotype D, serotype ayw)
# condition.description: Hepatitis B virus, HePAD38, positive control, read-out: EC50 in the HepAD38 assay
endpoint.name: EC50

[[record]]
compound = "C=C1[C@H](CO)[C@@H](O)C[C@@H]1n1cnc2c(=O)[nH]c(N)nc21 [entecavir, reference compound]"
endpoint_name = "EC50"
observed = "500 pM"

